For each of the compounds below, state its TGI.
Test system: MDA-MB-435
Experiment: NCI tumour cell line growth inhibition, 48 h

Reported TGI for "Cn1ncc2c(Sc3ccc(Cl)cc3)ncnc21" was > 100 µM

The compound listed as "O=C1C=CC(=O)c2c(O)c(NCCCN3CCOCC3)c(Cl)c(O)c21" shows TGI equal to 3.62 µM

What the record says about "CN(C)c1ccc(/C=C/c2nc3ccccc3s2)cc1" : TGI is > 100 µM

Query CC(C)C(=O)OCC1CCCN2CCCCC12 (stereo unspecified) yields TGI of > 100 µM

Form: compound = "Cc1nc2cc([N+](=O)[O-])ccc2c(NCCCN(C)C)c1C" ; TGI = 31.1 µM

# TGI of CC(=O)CC1(OC(=O)C2C(C=C(C)C)C2(C)C)C(=O)Nc2ccccc21 (stereo unspecified) = > 100 µM

In plain terms, "N#CCCOc1cccc(C2(N3CCCCC3)CCCCC2)c1" has a documented TGI of > 100 µM

response.value for "COc1cc(/C=N\O)cc(/C=N/O)c1O" (field: TGI) = > 100 µM

Briefly, TGI measured for "FC(F)(F)c1ccc(-c2cnc(Cl)nc2NC2CCCCCC2)cc1" : > 100 µM

For this compound ( "S=C(/C=C1\SC(=Nc2ccccc2)C(=Nc2ccccc2)N1c1ccccc1)Nc1ccccc1" ), measured TGI is > 100 µM

Kindly note the recorded TGI for CCCCCCCCc1ccc(OCCOCC[N+](C)(C)CC)cc1 (tested in a mixture with another compound) , which is 11.2 µM
